- method.description: Brain exposure (brain:plasma ratio, Table 24)
- Format: in vivo, Rats
- particulars: rat, brain and plasma, iv; 1 mg/kg i.v.; 1 hr; read-out: RATIO: Brain:plasma (Direct)
measurement.name: Kp at 1 h
// no unit, no text: just the number

Value of measured Kp at 1 h for the entry O=C(COc1ccc2[nH]c(=O)[nH]c2c1)N1CCN(c2ccc(Cl)c(Cl)c2)CC1 [drawing 807] : 0.07

###

- method.description: Brain exposure (brain:plasma ratio, Table 24)
- Assay type: in vivo, Rats
- particulars: rat, brain and plasma, iv; 3 MPK i.v. @ 6 hr, 1MPK @ 0.5 hr and 2 hr; 1 hr; read-out: RATIO: Brain:plasma (Direct)
- Procedure: Animals were fasted overnight prior to dose administration and food returned to the animals two hours after dosing. […] The supernatant fractions were analyzed by LC-MS/MS operating in multiple reaction monitoring mode (MRM). The amount of parent compound in each sample was calculated by comparing the response of the analyte in the sample to that of a standard curve.
measurement.name: Kp at 1 hr

Value of measured Kp at 1 hr for the entry NC(=O)Nc1ccc(OC[C@@H](O)CN2CCN(c3ccc(Cl)cc3)CC2)cc1 [drawing 803] : 0.53
